assay: Cytotoxicity against human RPTEC after 24 hrs by LDH assay
Format: cell-based
recorded conditions: RPTEC cells, read-out: TC50
Where a SMILES comes first, the peptide text is derived from it. Bridges are numbered along the chain shown (N, C = ends). [ ]: non-standard residue; d: D form. The star is where a group is joined. Benzoyl(4-Ph) = O=C(c1ccc(-c2ccccc2)cc1)*; X7 = N#Cc1ccc(-c2cc(C(=O)*)ccc2Cl)cc1; X19 = O=C(c1ccnc(-c2cccc(Cl)c2)c1)*; X10 = O=C(c1ccnc(-c2ccccc2Cl)c1)*; X2 = COc1ccc(C(=O)*)cc1-c1ccccc1; Dab = NCC[C@H](N)C(=O)O; Dap = NC[C@H](N)C(=O)O
experimental readout: CC50 at 24 h

Check out these entries, answers already filled in.
CC(C)C[C@@H]1NC(=O)[C@@H](Cc2ccccc2)NC(=O)[C@H](CCN)NC(=O)[C@@H](NC(=O)[C@H](CN)NC(=O)[C@@H](NC(=O)[C@H](CCN)NC(=O)c2ccnc(-c3ccccc3Cl)c2)[C@@H](C)O)CCNC(=O)[C@H]([C@@H](C)O)NC(=O)[C@H](CCN)NC(=O)[C@H](CCN)NC1=O (X10-[Dab]T[Dap][Dab][Dab][dF]L[Dab][Dab]T; lactam 4-C)
86 µM
COc1ccc(C(=O)N[C@@H](CCN)C(=O)N[C@H](C(=O)N[C@@H](CN)C(=O)N[C@H]2CCNC(=O)[C@H]([C@@H](C)O)NC(=O)[C@H](CCN)NC(=O)[C@H](CCN)NC(=O)[C@H](CC(C)C)NC(=O)[C@@H](Cc3ccccc3)NC(=O)[C@H](CCN)NC2=O)[C@@H](C)O)cc1-c1ccccc1 (X2-[Dab]T[Dap][Dab][Dab][dF]L[Dab][Dab]T; lactam 4-C)
27 µM
CC(C)C[C@@H]1NC(=O)[C@@H](Cc2ccccc2)NC(=O)[C@H](CCN)NC(=O)[C@@H](NC(=O)[C@H](CN)NC(=O)[C@@H](NC(=O)[C@H](CCN)NC(=O)c2ccc(-c3ccccc3)cc2)[C@@H](C)O)CCNC(=O)[C@H]([C@@H](C)O)NC(=O)[C@H](CCN)NC(=O)[C@H](CCN)NC1=O ({Benzoyl(4-Ph)}-[Dab]T[Dap][Dab][Dab][dF]L[Dab][Dab]T; lactam 4-C)
28 µM
CC(C)C[C@@H]1NC(=O)[C@@H](Cc2ccccc2)NC(=O)[C@H](CCN)NC(=O)[C@@H](NC(=O)[C@H](CN)NC(=O)[C@@H](NC(=O)[C@H](CCN)NC(=O)c2ccnc(-c3cccc(Cl)c3)c2)[C@@H](C)O)CCNC(=O)[C@H]([C@@H](C)O)NC(=O)[C@H](CCN)NC(=O)[C@H](CCN)NC1=O (X19-[Dab]T[Dap][Dab][Dab][dF]L[Dab][Dab]T; lactam 4-C)
34 µM
CC(C)C[C@@H]1NC(=O)[C@@H](Cc2ccccc2)NC(=O)[C@H](CCN)NC(=O)[C@@H](NC(=O)[C@H](CN)NC(=O)[C@@H](NC(=O)[C@H](CCN)NC(=O)c2ccc(=O)n(-c3ccccc3)c2)[C@@H](C)O)CCNC(=O)[C@H]([C@@H](C)O)NC(=O)[C@H](CCN)NC(=O)[C@H](CCN)NC1=O
> 100 µM

Next molecule, CC50 at 24 h to be filled in.
According to the records, this molecule CC(C)C[C@@H]1NC(=O)[C@@H](Cc2ccccc2)NC(=O)[C@H](CCN)NC(=O)[C@@H](NC(=O)[C@H](CN)NC(=O)[C@@H](NC(=O)[C@H](CCN)NC(=O)c2ccc(Cl)c(-c3ccc(C#N)cc3)c2)[C@@H](C)O)CCNC(=O)[C@H]([C@@H](C)O)NC(=O)[C@H](CCN)NC(=O)[C@H](CCN)NC1=O (X7-[Dab]T[Dap][Dab][Dab][dF]L[Dab][Dab]T; lactam 4-C) displays CC50 at 24 h of 20 µM
